biological target: human PAC channel (wt-PAC) (Homo sapiens, UniProt Q9H813, A81C/L309A/P303A/T306A); construct: full-length, homotrimer; pCMV-blank, transiently expressed in PACC1-knockout HEK293T cells; library screen on endogenous PAC of HEK293T cells; assay: whole-cell patch clamp, inhibition of current
Sequence (Q9H813 whole entry A81C/P303A/T306A/L309A): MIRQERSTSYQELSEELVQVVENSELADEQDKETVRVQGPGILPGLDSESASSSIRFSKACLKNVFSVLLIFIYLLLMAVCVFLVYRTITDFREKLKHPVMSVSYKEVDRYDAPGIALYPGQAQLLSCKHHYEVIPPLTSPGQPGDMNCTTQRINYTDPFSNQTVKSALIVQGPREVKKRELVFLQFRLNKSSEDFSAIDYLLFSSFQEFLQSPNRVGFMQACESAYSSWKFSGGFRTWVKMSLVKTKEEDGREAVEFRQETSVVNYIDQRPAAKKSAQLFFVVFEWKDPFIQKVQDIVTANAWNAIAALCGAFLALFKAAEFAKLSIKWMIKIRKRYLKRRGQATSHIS
pIC50: −log10 of the molar value.
ASSAY READOUT: pIC50

For Cc1occc1C(=O)Nc1ccc(I)cc1C(=O)O the compound record lists pIC50 as ~3.70

---

biological target: human PAC channel (wt-PAC) (Homo sapiens, UniProt Q9H813, F196A); construct: full-length, homotrimer; pCMV-blank, transiently expressed in PACC1-knockout HEK293T cells; library screen on endogenous PAC of HEK293T cells; assay: whole-cell patch clamp, inhibition of current
ASSAY READOUT: IC50
# number then unit; no other words

Sample Cc1occc1C(=O)Nc1ccc(I)cc1C(=O)O ; IC50 observed: 3 µM

---

target: human PAC channel (wt-PAC) (Homo sapiens, UniProt Q9H813, A321C); construct: full-length, homotrimer; pCMV-blank, transiently expressed in PACC1-knockout HEK293T cells; library screen on endogenous PAC of HEK293T cells; experiment: whole-cell patch clamp, activation of current
Sequence (Q9H813 whole entry A321C): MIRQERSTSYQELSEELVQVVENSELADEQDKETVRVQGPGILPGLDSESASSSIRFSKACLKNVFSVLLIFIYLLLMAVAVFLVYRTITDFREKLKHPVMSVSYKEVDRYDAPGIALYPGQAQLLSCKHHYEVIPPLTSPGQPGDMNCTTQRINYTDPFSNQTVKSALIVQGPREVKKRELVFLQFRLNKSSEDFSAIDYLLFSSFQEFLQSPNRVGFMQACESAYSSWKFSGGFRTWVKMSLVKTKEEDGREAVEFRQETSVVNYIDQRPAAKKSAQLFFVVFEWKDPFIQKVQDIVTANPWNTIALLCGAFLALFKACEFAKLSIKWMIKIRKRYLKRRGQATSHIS
ASSAY READOUT: EC50 (µM)
# value in µM; strip the unit string

Cc1occc1C(=O)Nc1ccc(I)cc1C(=O)O tested on human PAC channel (wt-PAC) (Homo sapiens, UniProt Q9H813, A321C) gave EC50: 1

---

biological target: human PAC channel (wt-PAC) (Homo sapiens, UniProt Q9H813, F196A/R237A); construct: full-length, homotrimer; pCMV-blank, transiently expressed in PACC1-knockout HEK293T cells; library screen on endogenous PAC of HEK293T cells; test: whole-cell patch clamp, inhibition of current
ASSAY READOUT: pIC50
pIC50 is defined as minus the log10 of a concentration measured in mol/L.

So, Cc1occc1C(=O)Nc1ccc(I)cc1C(=O)O [C77304] ? Its pIC50 was 5.24

---

molecular target: human PAC channel (wt-PAC) (Homo sapiens, UniProt Q9H813); construct: full-length, homotrimer; pCMV-blank, transiently expressed in PACC1-knockout HEK293T cells; library screen on endogenous PAC of HEK293T cells; assay: whole-cell patch clamp, activation of proton-evoked current
Sequence (Q9H813 whole entry): as the sequence (Q9H813 whole entry A81C/P303A/T306A/L309A) above, with C81A, A303P, A306T, A309L counted along it
ASSAY READOUT: EC50 (nM)
Give the value, in units of nM, as a plain number.

EC50 recorded for this compound, Cc1occc1C(=O)Nc1ccc(I)cc1C(=O)O [C77304] , is 600

The measurements presented in this section are drawn from paper PMC10529583.
